Just for reference, patent US20090137580A1 is where these values come from.

system: Human umbilical vein endothelial cells (HUVEC); experiment: Vascular endothelial cell growth inhibitory test; type: cell-based; details: VEGF 120 ng/mL, culture 5 days, XTT reagent, hydrochloride
Where a name gives a salt, the structure may show the parent alone.
propertyMeasured: IC50 (nM)
State just the number; it will be interpreted in nM.

Field request: IC50 | item: Cc1cc2ncnc(Oc3ccc(NC(=O)Nc4cccc(C(F)(F)F)c4)c(Cl)c3)c2n1C [Example 134, hydrochloride] 5.4
